Assignment: determine reported inhibition at 0.125 ppm for the given compounds.
# Tested on: Monographella nivalis (syn. Microdochium nivale, Fusarium nivale)
# MEASUREMENT_PROTOCOL: Monographella nivalis (snow mould, foot rot of cereals), PDB microtiter plate, visual after 72 hrs
# Assay type: cell-based
# EXPERIMENTAL_PARAMETERS: Monographella nivalis, applied alone, 0.125 ppm
Numbers only, in %.

# annotated cases, reported inhibition at 0.125 ppm shown
CON(C(=O)c1cn(C)nc1C(F)F)C(C)Cc1c(Cl)cc(Cl)cc1Cl (stereo not drawn) [(VI), reference compound] | 50
CCN(C)/C=N/c1cc(Br)c(OC2Cc3ccccc3C2)nc1C [Q.062] | 0

As a next step, examine the compound that follows.
Q: # query: inhibition at 0.125 ppm of entry CC(Cc1ccc(C(C)(C)C)cc1)CN1C[C@@H](C)O[C@@H](C)C1 (stereo partly drawn) [Fenpropimorph]
Ans: 0

====

VALUE_KIND: melting point

# annotated cases, reported melting point shown
CCN(C)/C=N/c1cc(Br)c(OCc2ccccc2Cl)nc1C [Q.300] | 53 to 56 °C
CCN(C)/C=N/c1cc(Br)c(OCc2cccc(NC(=O)OC(C)(C)C)c2)nc1C [Q.236] | 40 to 42 °C
CCN(C)/C=N/c1cc(Br)c(OCc2cccc(C(F)(F)F)c2)nc1C [Q.153] | 43 to 44 °C

Here are 2 compounds. What values of melting point were reported for them?
1. CCN(C)/C=N/c1cc(Br)c(OCc2ccc(F)cc2C)nc1C [Q.320]
2. CCN(C)/C=N/c1cc(Br)c(OCc2ccccc2F)nc1C [Q.298]

Ans:
["27 to 30 °C", "57 to 61 °C"]

Here are 2 compounds. What values of melting point were reported for them?
1. CCN(C)/C=N/c1cc(Br)c(OCc2cc(C)ccc2C)nc1C [Q.154]
2. CCN(C)/C=N/c1cc(Br)c(OC2CCCc3ccc(-c4cccc(F)c4)cc32)nc1C (stereo not shown) [Q.137]

Ans:
53 to 57 °C
43 to 45 °C

Source: patent US9326513B2
